The reported numbers originate from ChEMBL document CHEMBL1127802.

Consider the following molecules; for each one, report its inhibition.
molecular target: MAO A (monoamine oxidase A) (Rattus norvegicus); assay: Inhibitory activity against monoamine oxidase A (MAO A) from rat brain using a radiometric procedure with [3H]5-HT at 1 uM; conditions: rat brain monoamine oxidase A preparation, probe [3H]5-HT
Answer with a number only, understood to be in %.

Per the records, this molecule ( CC(=O)Nc1ccc2c(c1)CCC2 ) has inhibition equal to 13

Per the records, this molecule ( CC(=O)Nc1ccc2[nH]c(=O)c3ccccc3c2c1 ) has inhibition equal to 0

Per the records, this molecule ( NC(=O)Nc1ccc2c(c1)[nH]c1ccccc12 ) has inhibition equal to 74

Per the records, this molecule ( CCCC(=O)Nc1ccc2c(c1)[nH]c1ccccc12 ) has inhibition equal to 36

Per the records, this molecule ( CC(=O)Nc1ccc2c(c1)S(=O)(=O)c1ccccc1N2C ) has inhibition equal to 60

Per the records, this molecule ( CC(=O)NCc1ccc2c(c1)c1ccccc1n2C ) has inhibition equal to 16

Per the records, this molecule ( CC(=O)Nc1ccc2c(c1)N(C(C)=O)CC2 ) has inhibition equal to 37

Per the records, this molecule ( CC(=O)Nc1ccc2c(c1)S(=O)(=O)c1ccccc1C2 ) has inhibition equal to 17

Per the records, this molecule ( CC(=O)N(C)c1ccc2c(c1)-c1ccccc1S2(=O)=O ) has inhibition equal to 0

Per the records, this molecule ( CNc1ccc2c(c1)-c1ccccc1S2(=O)=O ) has inhibition equal to 34

Per the records, this molecule ( CC(=O)NC(C)c1ccc2c(c1)[nH]c1ccccc12 (configuration not stated) ) has inhibition equal to 7

Per the records, this molecule ( CC(=O)NCCc1ccc2c(c1)c1ccccc1n2C ) has inhibition equal to 50

Per the records, this molecule ( CC(=O)Nc1ccc2c(O)c3ccccc3nc2c1 ) has inhibition equal to 72

Per the records, this molecule ( CC(=O)Nc1ccc(Oc2ccc(CS(C)(=O)=O)cc2)cc1 ) has inhibition equal to 31

Per the records, this molecule ( CC(=O)Nc1ccc2c(c1)c(O)nc1ccccc12 ) has inhibition equal to 55

Per the records, this molecule ( CC(=O)Nc1ccc2c(c1)[nH]c1ccc(Br)cc12 ) has inhibition equal to 61

Per the records, this molecule ( CC(=O)Nc1ccc2c3c([nH]c2c1)CCCC3 ) has inhibition equal to 35

====

Biological target: MAO A (monoamine oxidase A) (Rattus norvegicus)
Sequence (P21396 whole entry): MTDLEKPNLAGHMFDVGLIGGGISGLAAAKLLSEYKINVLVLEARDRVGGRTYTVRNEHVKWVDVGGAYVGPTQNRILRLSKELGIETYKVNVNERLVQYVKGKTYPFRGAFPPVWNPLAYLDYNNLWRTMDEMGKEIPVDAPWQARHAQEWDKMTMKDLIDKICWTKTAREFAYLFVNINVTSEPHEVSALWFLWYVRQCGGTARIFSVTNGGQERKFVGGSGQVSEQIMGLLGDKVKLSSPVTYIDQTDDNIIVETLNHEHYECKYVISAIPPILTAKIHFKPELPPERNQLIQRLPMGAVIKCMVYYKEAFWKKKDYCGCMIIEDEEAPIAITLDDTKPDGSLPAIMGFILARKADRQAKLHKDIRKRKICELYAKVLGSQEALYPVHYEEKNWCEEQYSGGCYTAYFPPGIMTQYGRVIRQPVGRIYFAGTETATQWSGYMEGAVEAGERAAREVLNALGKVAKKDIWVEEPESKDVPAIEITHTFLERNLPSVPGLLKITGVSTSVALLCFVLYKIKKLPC
Experiment: Inhibitory activity against monoamine oxidase A (MAO A) from rat brain using a radiometric procedure with [3H]- serotonin at 0.1 uM
Conditions: rat brain monoamine oxidase A preparation, probe [3H]-serotonin
measurementKind: inhibition at 0.1 uM (%)
Answer with a number only, understood to be in %.

Per the records, this compound ( CC(=O)Nc1ccc2oc(=O)c3ccccc3c2c1 ) has inhibition at 0.1 uM equal to 10

====

molecular target: MAO B (monoamine oxidase B) (Rattus norvegicus); assay: Inhibitory activity against monoamine oxidase B (MAO B) from rat brain using a radiometric procedure with [14C]phenylethylamine at 0.3 uM; conditions: rat brain monoamine oxidase B preparation, probe [14C]phenylethylamine
measurementKind: inhibition at 0.3 µM (%)
Answer with a number only, understood to be in %.

Per the records, this molecule ( CCc1ccc2c(c1)C(=O)c1ccc(NC(C)=O)cc1S2(=O)=O ) has inhibition at 0.3 µM equal to 15

====

biological target: MAO B (monoamine oxidase B) (Rattus norvegicus, UniProt P19643); assay: Inhibitory activity against monoamine oxidase B (MAO B) from rat brain using a radiometric procedure with [14C]- phenethylamine at 10 uM; conditions: rat brain monoamine oxidase B preparation, probe [14C]-phenethylamine
Consider the following compounds; for each one, report its inhibition at 10 µM.
Answer with a number only, understood to be in %.

Per the records, this compound ( CC(=O)Nc1ccc(Nc2ccccc2)c(NC(C)=O)c1 ) has inhibition at 10 µM equal to 4

Per the records, this compound ( CC(=O)Nc1ccc2[nH]c3ccccc3c2c1 ) has inhibition at 10 µM equal to 37

====

target: UniProt P19643; experiment: Inhibitory activity against monoamine oxidase B (MAO B) from rat brain using a radiometric procedure with [14C]- phenethylamine at 1 uM; conditions: rat brain monoamine oxidase B preparation, probe [14C]-phenethylamine
Label Fulfilled when inhibition at 1 µM is at or above 10%; otherwise label Not fulfilled.

## Input # check: inhibition at 1 µM of CC(=O)Nc1ccc2c(cnn2C(C)=O)c1 is greater than or equal to 10%
## Output Fulfilled

## Input # check: inhibition at 1 µM of CC(=O)Nc1ccc2c(c1)oc(=O)c1ccccc12 is greater than or equal to 10%
## Output Not fulfilled

## Input # check: inhibition at 1 µM of CC(=O)Nc1cc2c(ccc3ccccc32)oc1=O is greater than or equal to 10%
## Output Fulfilled

## Input # check: inhibition at 1 µM of CC(=O)Nc1ccc2c3c([nH]c2c1)CCC(C)(C=O)C3 (stereo not given) is greater than or equal to 10%
## Output Fulfilled

## Input # check: inhibition at 1 µM of CC(=O)Nc1ccc2[nH]ccc2c1 is greater than or equal to 10%
## Output Not fulfilled

====

Biological target: MAO B (monoamine oxidase B) (Rattus norvegicus)
Sequence (P19643 whole entry): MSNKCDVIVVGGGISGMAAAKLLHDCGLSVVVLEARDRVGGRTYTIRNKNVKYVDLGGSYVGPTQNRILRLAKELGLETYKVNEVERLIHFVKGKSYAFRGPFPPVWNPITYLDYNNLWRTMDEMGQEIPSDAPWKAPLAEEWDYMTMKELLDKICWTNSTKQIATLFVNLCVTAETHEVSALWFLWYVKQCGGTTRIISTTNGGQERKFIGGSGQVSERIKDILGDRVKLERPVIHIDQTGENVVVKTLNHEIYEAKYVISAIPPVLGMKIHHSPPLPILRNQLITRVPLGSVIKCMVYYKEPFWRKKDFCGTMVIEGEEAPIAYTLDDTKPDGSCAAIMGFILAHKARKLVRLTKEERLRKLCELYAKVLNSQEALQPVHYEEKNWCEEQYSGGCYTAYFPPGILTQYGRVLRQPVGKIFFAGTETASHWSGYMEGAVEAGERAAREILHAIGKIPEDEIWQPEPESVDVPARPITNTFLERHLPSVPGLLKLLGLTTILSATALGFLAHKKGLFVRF
Experiment: Inhibitory activity against monoamine oxidase B (MAO B) from rat brain using a radiometric procedure with [14C]phenylethylamine at 1 uM
Conditions: rat brain monoamine oxidase B preparation, probe [14C]phenylethylamine
Consider the following compounds; for each one, report its inhibition at 1 µM.
Answer with a number only, understood to be in %.

Per the records, this compound ( CC(=O)Nc1ccc2c3c([nH]c2c1)CCCC3 ) has inhibition at 1 µM equal to 0

Per the records, this compound ( CC(=O)Nc1ccc2c(c1)S(=O)(=O)c1ccccc1C2 ) has inhibition at 1 µM equal to 49

Per the records, this compound ( CC(=O)Nc1ccc2c(c1)S(=O)(=O)c1ccccc1C2=O ) has inhibition at 1 µM equal to -1

Per the records, this compound ( CC(=O)Nc1ccc2c(c1)-c1ccccc1S2(=O)=O ) has inhibition at 1 µM equal to 13

====

target: MAO B (monoamine oxidase B) (Rattus norvegicus, UniProt P19643); assay: Inhibitory activity against monoamine oxidase B (MAO B) from rat brain using a radiometric procedure with [14C]phenylethylamine at 1 uM; conditions: rat brain monoamine oxidase B preparation, probe [14C]phenylethylamine
measurementKind: inhibition at 1 µM (%)
Answer with a number only, understood to be in %.

Per the records, this molecule ( CC(=O)Nc1ccc2c(c1)S(=O)(=O)c1ccccc1N2C ) has inhibition at 1 µM equal to 18

Per the records, this molecule ( CC(=O)Nc1ccc(Oc2ccc(CS(C)(=O)=O)cc2)cc1 ) has inhibition at 1 µM equal to 25

Per the records, this molecule ( CC(=O)Nc1ccc2[nH]c(=O)c3ccccc3c2c1 ) has inhibition at 1 µM equal to 11
